Tested on: HOP-92
Hit rate of the full screen: of about 52,000 sequences, about 3,800 (7.3%) were called active. Only a sample is shown. Results with a measured potency or affinity are listed apart.
Quick rule for you: GI50 under 20 µM gets TRUE, anything else gets FALSE.

| Substance | Classification |
| --- | --- |
| [Bis(aminomethyl)tetramethylenesilane]dichloropaltinum(II), CHEMBL2146205 | FALSE |
| cis-Bis[[(trimethylsilyl)methyl]amino]tetrachloroplatinum(IV), CHEMBL2146191 | TRUE |
| mu-(1,7-nanodiamine-N,N')bis-(cis-aminedichloroplatimum (II)), CHEMBL2146215 | FALSE |
| [Bis(aminomethyl)pentamethylenesilane]tetrachloropaltinum(IV), CHEMBL2146204 | FALSE |

Alright, here's another substance for you.
Req: Lab log: compare recorded GI50 with 20 µM; is it strictly lower for [Bis(aminomethyl)diethylsilane]tetrachloroplatinum(IV), CHEMBL2146203 ?
Resp: TRUE
